System: CAKI-1 renal
runDescription: NCI tumour cell line growth inhibition, 48 h

# molecule, GI50
data = [
    ("CC(=O)[O-].O=C([CH-]C(=O)c1ccccc1)c1ccccc1.O=C([CH-]C(=O)c1ccccc1)c1ccccc1.[Sm+3]", "3.57 µM"),
    ("C=CC(COC(c1ccccc1)(c1ccccc1)c1ccccc1)N(CC)CC (stereo not drawn)", "2.43 µM"),
    ("O=Nc1c(-c2c(O)[nH]c3ccc(Br)cc23)[nH]c2ccccc12", "3.44 µM"),
    ("C=C(C(=O)O[C@H]1C(=O)C2=C(C)CCC3C(=C)C(=O)O[C@@H]3C2[C@]1(C)O)C1CC[C@]2(C)CCCC(=C)[C@H]2C1 (stereo partly drawn)", "3.67 µM"),
    ("COc1ccc2nc3cc(Cl)ccc3c(NCCNc3c4ccc(Cl)cc4nc4ccc(OC)cc34)c2c1", "1.72 µM"),
    ("COc1cc2c3c(n(C)c(=O)c2cc1OC)-c1cc2c(cc1/C3=C\\CCNCCCN)OCO2", "3.44 µM"),
    ("O=c1ccc2nc(-c3ccccn3)nn(-c3ccccc3)c-2c1", "1.49 µM"),
    ("CC[C@H](C)C(=O)O[C@H]1C[C@H](O)C=C2C=C[C@H](C)[C@H](CC[C@@H](O)C[C@@H](O)CC(=O)O)[C@H]21", "> 100 µM"),
]

###

System: LXFL 529 NSCLC
runDescription: NCI tumour cell line growth inhibition, 48 h
assayEndpoint: TGI

# compound, endpointValue
data = [
    ("CN1C/C(=C\\C=C\\c2ccccc2)C(=O)/C(=C/C=C/c2ccccc2)C1", "> 100 µM"),
    ("CCN(CC)C(=S)[S][Bi]([S]C(=S)N(CC)CC)[S]C(=S)N(CC)CC", "0.275 µM"),
    ("O=c1oc2ccccc2c(O)c1C(C/C(CCN1CCCC1)=N\\Nc1ccccc1)c1ccccc1 (stereo unspecified)", "> 100 µM"),
    ("O=C(/C=C\\c1cccc2ccccc12)c1cccc2ccccc12", "13.6 µM"),
    ("O=NN(CCCl)C(=O)NC1CCC(CC2CCC(NC(=O)N(CCCl)N=O)CC2)CC1 (stereo unspecified)", "> 100 µM"),
    ("O=S1Nc2c(Cl)cc(Cl)c(Cl)c2S1 (stereo unspecified)", "> 100 µM"),
]

###

Quick reference: log10 of TGI of the listed items.
Tested on: KM12 colon
runDescription: NCI tumour cell line growth inhibition, 48 h
assayEndpoint: log10 of TGI (log10 of the value in µM)

# molecule, targetSystem, assayEndpoint, endpointValue
measured = [
    ("[N-]=[N+]=Nc1c([N+](=O)[O-])c(=O)n2c3c(cccc13)CCC2", "KM12 colon", "log10 of TGI", 1.54),
    ("COC(=O)C1=C(C(=O)OC)SC2(S1)C(C(=O)OC)=C(C(=O)OC)Sc1c2ssc1=NC(C)(C)C", "KM12 colon", "log10 of TGI", 0.59),
    ("CC#Cc1nc(Nc2cc(C)[nH]n2)c2ccccc2n1", "KM12 colon", "log10 of TGI", 1.09),
    ("COc1c(B(O)O)cc(F)cc1-c1nc2ccc3[nH]ncc3c2c2c1CCCC2", "KM12 colon", "log10 of TGI", 0.88),
    ("O=C(/C=C\\c1cccc2ccccc12)c1cccc2ccccc12", "KM12 colon", "log10 of TGI", 1.22),
    ("CCCCCCCCCCCCCC(=O)N(CCCCCCCCC)CC(O)C(O)C(OC1OC(CO)C(O)C(O)C1O)C(O)CO (centres undefined)", "KM12 colon", "log10 of TGI", 1.57),
    ("COc1cc(Br)c(CC2C3=C(CCN2C(=O)C2CCC2)CC(=O)CC3)cc1O (centres undefined)", "KM12 colon", "log10 of TGI", 1.87),
]
